The reported numbers originate from patent US7745465B2.

Test system: Hsp72
Assay: Heat stress induced hsp72 expression in rat spleen explant
Assay type: cell-based
Details: 10^−5 M, 15 min. before 43° C. 30 min.
Quantity name: Level of hsp72 relative to the stress exposed control

CCCCCCCNC(=O)NOCC(O)CN1CCCCC1 (stereo not shown) [Example 55] | +++ (>100%)
O=C(NOCC(O)CN1CCCCC1)Nc1cccc(Cl)c1 (stereo not shown) [Example 59] | +++ (>100%)

###

System: Hsp72
Assay: Heat stress induced hsp72 expression in rat testicular explant
Format: cell-based
Conditions: 10^−5 M, 15 min. before 43° C. 30 min.
Quantity name: Level of hsp72 relative to the stress exposed control

CCCCCCCNC(=O)NOCC(O)CN1CCCCC1 (centres unmarked) [Example 55] | + +
Cl.Cl.ClC(=NOCCCN1CCCCC1)c1cccnc1 [Example 78] | + +
CCN(CC)CC(O)CON=C(Cl)c1cccc(C(F)(F)F)c1.Cl (centres unmarked) [Example 12] | + (21-50%)
CCCCCCCCCCCCCCCC(=O)OC(CON=C(Cl)c1cccnc1)CN1CCCCC1.Cl.Cl (centres unmarked) [Example 23] | + + +
Cl.O=[N+]([O-])c1cccc(C(Cl)=NOCC(O)CN2CCCCC2)c1 (centres unmarked) [Example 4] | + (21-50%)

CC(C)(C)NCC(O)CON=C(Cl)c1cccc(C(F)(F)F)c1.Cl (centres unmarked) [Example 9] has a reported Level of hsp72 relative to the stress exposed control of + (21-50%)

CN(OCCCN1CCCCC1)C(=O)c1ccccc1.Cl has a reported Level of hsp72 relative to the stress exposed control of + (21-50%)

O=C(O)/C=C\C(=O)O.OC(CON=C(Cl)c1cccnc1)CN1CCCCC1 (centres unmarked) has a reported Level of hsp72 relative to the stress exposed control of + + +

Cl.O=[N+]([O-])c1cccc(C(Cl)=NOCCCN2CCCCC2)c1 [Example 79] has a reported Level of hsp72 relative to the stress exposed control of + +

###

System: HSP72
Experiment: Heat stress induced HSP72 production in 3T3 cells
Format: cell-based, mouse
Settings: 10^−5 M, treatment 100 min. after 30 min. 43° C. heat stress
Quantity name: HSP72 level relative to the stress exposed control

Recorded HSP72 level relative to the stress exposed control, per entry:
Cl.O=[N+]([O-])c1cccc(C(Cl)=NOCCCN2CCCCC2)c1 | + (21-50%)
O=C(O)/C=C\C(=O)O.OC(CON=C(Cl)c1ccncc1)CN1CCCCC1 (stereo not shown) | ++ (51-100%)
O=C(NOCC(O)CN1CCCCC1)c1cccc2ccccc12 (stereo not shown) | ++ (51-100%)
C[n+]1cccc(C(Cl)=NOCC(O)C[N+]2(C)CCCCC2)c1.[I-].[I-] (stereo not shown) | +++ (>100%)

For the compound CCCCCCNC(=O)NOCC(O)CN1CCCCC1 (stereo not shown) , the measured HSP72 level relative to the stress exposed control on HSP72 was +++ (>100%)

For the compound CCCCCCCCCCCCCCCC(=O)OC(CONC(=N)c1cccnc1)CN1CCCCC1.Cl (stereo not shown) , the measured HSP72 level relative to the stress exposed control on HSP72 was + (21-50%)

For the compound Cl.Cl.N=C(NOCC(O)CN1CCCCC1)c1cnc2ccccc2c1 (stereo not shown) , the measured HSP72 level relative to the stress exposed control on HSP72 was +++ (>100%)

###

Test system: HSP72
Experiment: Heat stress induced HSP72 production in 3T3 cells
Format: cell-based, mouse
Settings: 10^−5 M, treatment 15 min. before 30 min. 43° C. heat stress
Quantity name: HSP72 level relative to the stress exposed control

Recorded HSP72 level relative to the stress exposed control, per entry:
CCCCCCNC(=O)NOCCCN1CCCCC1 [Example 61] | ++ (51-100%)
Cl.O=[N+]([O-])c1cccc(C(Cl)=NOCCCN2CCCCC2)c1 [Example 79] | +++ (>100%)
CCCNC(=O)NOCC(O)CN1CCCCC1 (centres unmarked) [Example 56] | +++ (>100%)
CCN(CC)CC1CON=C(c2cccnc2)O1.Cl (centres unmarked) | + (21-50%)
Cl.c1cncc(C(=NOCCCN2CCCCC2)N2CCCC2)c1 | +++ (>100%)

O=C(NOCC(O)CN1CCCCC1)c1cccc2ccccc12 (centres unmarked) [Example 54] has a reported HSP72 level relative to the stress exposed control of +++ (>100%)

CN(OCCCN1CCCCC1)C(=O)c1ccccc1.Cl has a reported HSP72 level relative to the stress exposed control of + (21-50%)

CN(OCCCN1CCCCC1)C(=O)c1cccc(C(F)(F)F)c1.Cl has a reported HSP72 level relative to the stress exposed control of +++ (>100%)

CN(C)C(=NOCCCN1CCCCC1)Nc1ccccc1.Cl has a reported HSP72 level relative to the stress exposed control of ++ (51-100%)

O=C(O)/C=C\C(=O)O.OC(CON=C(Cl)c1cccnc1)CN1CCCCC1 (single isomer, unassigned; (-)) has a reported HSP72 level relative to the stress exposed control of +++ (>100%)

###

Tested on: Hsp72
Assay: Heat stress induced hsp72 expression in rat testicular explant
Assay type: cell-based
Conditions: 10^−5 M, 15 min. before 43° C. 30 min.
Description: Testis of CFY rats weighing of 200 g were removed in sterile conditions and the released testicular tubuli were suspended in 10% fetal bovine serum containing MEM culture medium in that way that five ml suspension contained 50-100 mg tissue. The explants were incubated in 5% CO2 containing humidified air at 37° C. for one hour, then the cultures were treated with 10^−5 M concentration of the tested compounds. […] The amount of the induced hsp72 was measured after a further 6 hours incubation at 37° C.
Quantity name: Level of hsp72 relative to the stress exposed control

Recorded Level of hsp72 relative to the stress exposed control, per entry:
Cl.O=[N+]([O-])c1ccccc1C(Cl)=NOCC(O)CN1CCCCC1 (stereo not shown) [Example 6] | + +
Cl.OC(CON=C(Cl)c1ccccc1)CN1CCCCC1 (stereo not shown) | + + +
CCN(CC)CC1CON=C(c2cccnc2)O1.Cl (stereo not shown) | + +
Cl.Cl.N=C(NOCC(O)CN1CCCCC1)c1nccc2ccccc12 (stereo not shown) [Example 46] | + + +
c1cncc(C2=NOCC(CN3CCCCC3)N2)c1 (stereo not shown) [Example 64] | + +

Cl.ClC(=NOCCCN1CCCCC1)c1cccs1 has a reported Level of hsp72 relative to the stress exposed control of + +

O=C(O)/C=C\C(=O)O.O=C(OC(CON=C(Cl)c1cccnc1)CN1CCCCC1)c1ccccc1 (stereo not shown) [Example 21] has a reported Level of hsp72 relative to the stress exposed control of + +

###

System: HSP72
Experiment: Heat stress induced HSP72 production in 3T3 cells
Type: cell-based, mouse
Conditions: 10^−5 M, treatment 15 min. before 30 min. 43° C. heat stress
Quantity name: HSP72 level relative to the stress exposed control

CCN(CC)C(=NOCC(O)CN1CCCCC1)c1cccnc1.Cl (stereo not drawn) [Example 51] | +++ (>100%)
CCN(CC)CCCON=C(Cl)c1cccnc1.Cl | +++ (>100%)
O=C(O)/C=C\C(=O)O.c1cncc(C2=NOCC(CN3CCCCC3)O2)c1 (stereo not drawn) | ++ (51-100%)
O=C(O)/C=C\C(=O)O.OC(CON=C(Cl)c1cccnc1)CN1CCCCC1 (stereo not drawn) | +++ (>100%)
CC(=NOCC(O)CNC(C)(C)C)c1cccc(C(F)(F)F)c1.CC(=O)O (stereo not drawn) | +++ (>100%)
c1cncc(C2=NOCC(CN3CCCCC3)N2)c1 (stereo not drawn) [Example 64] | +++ (>100%)
Cl.c1ccc(C2=NOCC(CN3CCCCC3)O2)cc1 (stereo not drawn) | ++ (51-100%)
Cl.Cl.ClC(=NOCCCN1CCCCC1)c1cccnc1 [Example 78] | +++ (>100%)
Cl.O=[N+]([O-])c1ccccc1C(Cl)=NOCC(O)CN1CCCCC1 (stereo not drawn) [Example 6] | +++ (>100%)
CCCCCCCCCCCCCCCC(=O)OC(CONC(=N)c1cccnc1)CN1CCCCC1.Cl (stereo not drawn) [Example 22] | +++ (>100%)

Kindly consider the entry below.
For the compound C[n+]1cccc(C(Cl)=NOCC(O)C[N+]2(C)CCCCC2)c1.[I-].[I-] (stereo not drawn) [Example 16] , the measured HSP72 level relative to the stress exposed control on HSP72 was +++ (>100%)

###

# reported melting point; entries follow

Cl.N=C(NOCC(CN1CCCCC1)OC(=O)c1ccccc1Cl)c1cccnc1 (stereo not shown) | 91 to 94 °C
CCCCCCCCCCCCCCCC(=O)OC(CON=C(Cl)c1cccnc1)CN1CCCCC1.Cl.Cl (stereo not shown) [Example 23] | 69 to 73.5 °C
Cl.Cl.N=C(NOCC(O)CN1CCCCC1)c1ccc([N+](=O)[O-])cc1 (stereo not shown) | 184 to 189 °C
Cl.Cl.N=C(NOCC(O)CN1CCCCC1)c1cccs1 (stereo not shown) | 157 to 170 °C
CCN(CC)CC(O)CON=C(Cl)c1cccc(C(F)(F)F)c1.Cl (stereo not shown) [Example 12] | 121 to 128 °C

Cl.N=C(NOCCCN1CCCCC1)c1cccc([N+](=O)[O-])c1 has a reported melting point of 158 to 162 °C

Cl.N=C(NOCCCN1CCCCC1)c1cccc(C(F)(F)F)c1 has a reported melting point of 116 to 119 °C

COc1ccc(CC(=N)NOCCCN2CCCCC2)cc1OC.Cl.Cl has a reported melting point of 207 to 209 °C

Cl.Cl.N=C(NOCCCN1CCCCC1)c1ccccc1 has a reported melting point of 207 to 209 °C

N=C(NOCC(CN1CCCCC1)OC(=O)c1ccco1)c1cccnc1.O=C(O)/C=C\C(=O)O (stereo not shown) has a reported melting point of 167 to 171.5 °C
